experiment: Cytotoxicity against African green monkey Vero cells assessed as cell growth inhibition incubated for 72 hrs by sulforhodamine B assay; format: toxicity, cell-based, Chlorocebus sabaeus
Endpoint Name: IC50 at 72 h

Given CCc1nc(N)nc(N)c1Cc1ccc(-c2cccc(C(=O)O)c2)cc1.Cl , state its recorded IC50 at 72 h.
> 50 µM

Continuing:
Given CCc1nc(N)nc(N)c1Cc1cccc(-c2cccc(C(=O)O)c2)c1 , state its recorded IC50 at 72 h.
> 50 µM

Given CCc1nc(N)nc(N)c1Cc1cccc(-c2ccc(C(=O)O)cc2)c1.Cl.Cl , state its recorded IC50 at 72 h.
> 50 µM

Given CCc1nc(N)nc(N)c1Cc1ccc(-c2ccc(C(=O)OC)cc2)cc1.Cl , state its recorded IC50 at 72 h.
> 25 µM

Given CCc1nc(N)nc(N)c1OCCCOc1ccccc1CCC(=O)O , state its recorded IC50 at 72 h.
> 100 µM

Given CCc1nc(N)nc(N)c1Cc1cccc(-c2cccc(C(=O)OC)c2)c1 , state its recorded IC50 at 72 h.
21.7 µM

Given CCc1nc(N)nc(N)c1Cc1ccc(-c2ccc(C(=O)O)cc2)cc1.Cl , state its recorded IC50 at 72 h.
> 50 µM

Given CCc1nc(N)nc(N)c1Cc1cccc(-c2ccc(C(=O)OC)cc2)c1 , state its recorded IC50 at 72 h.
> 50 µM

Given CCc1nc(N)nc(N)c1Cc1ccc(-c2cccc(C(=O)OC)c2)cc1.Cl , state its recorded IC50 at 72 h.
19.3 µM
